System: morningglory
Experiment: Test C pre-/postemergence herbicide test
Type: in vivo, Ipomoea coccinea
Conditions: Postemergence, 125 g ai/ha; scale 0 to 100 (0 no effect, 100 complete control)
Below is a list of entries, each paired with its recorded Plant response rating, Morningglory value.

Guide cases for Plant response rating, Morningglory, answers given:
{"columns": ["MOLECULE", "Plant response rating, Morningglory"],
 "data": [
  ["O=C1NCC(c2cccc(C(F)(F)F)c2)C1C(=O)Nc1cccc(Cl)c1F (stereo not shown) [Compound 316]", 10],
  ["O=C1NCC(c2ccccc2)C1C(=O)Nc1ccccc1F (racemic) [Compound 81]", 0],
  ["O=C1NCC(c2cccc(OC(F)F)c2)C1C(=O)Nc1cccc(F)c1F (stereo not shown) [Compound 324]", 10]
]}

Please examine the following record next.
Tell me the measured Plant response rating, Morningglory of O=C1NCC(c2cccc(C(F)(F)F)c2)C1C(=O)Nc1ccc(F)cc1F (racemic) [Compound 207] , please.
5

====

Tested on: pigweed
Test: Test C pre-/postemergence herbicide test
Assay type: in vivo, Amaranthus retroflexus
Settings: Preemergence, 62 g ai/ha; scale 0 to 100 (0 no effect, 100 complete control)
From the text: […]
VALUE TYPE: Pigweed plant response rating
I'd appreciate a reply containing only the number, no unit.

Guide cases for Pigweed plant response rating, answers given:
{"columns": ["COMPOUND", "VALUE TYPE", "READOUT NUMBER"],
 "data": [
  ["O=C(Nc1ccccc1F)C1C(=S)NCC1c1cccc(C(F)(F)F)c1 (stereo not shown) [Compound 274]", "Pigweed plant response rating", 0],
  ["O=C1NCC(c2cccc(C(F)(F)F)c2)C1C(=O)Nc1cccc(Cl)c1F (stereo not shown) [Compound 316]", "Pigweed plant response rating", 25],
  ["O=C1NCC(c2cccc(OC(F)F)c2)C1C(=O)Nc1cccc(F)c1F (stereo not shown) [Compound 324]", "Pigweed plant response rating", 75]
]}

Please examine the following record next.
Tell me the measured Pigweed plant response rating of O=C1NCC(c2cccc(OC(F)F)c2)C1C(=O)Nc1ccccc1F (stereo not shown) [Compound 223] , please.
5

====

Test system: galium
Test: Test A postemergence herbicide test
Assay type: in vivo, Galium aparine
Details: 500 g ai/ha
Decide by Galium plant response rating (0 to 100 scale, 0 is no effect, 100 is complete control): equal to or exceeding 40 means criterion met, less means criterion not met.

# count of solved cases: 8
{"columns": ["MOLECULE", "CATEGORY LABEL"],
 "data": [
  ["O=C1NCC(c2ccc(OC(F)(F)C(F)F)cc2)C1C(=O)Nc1cccc(F)c1F (racemic)", "criterion not met"],
  ["Cc1ccccc1NC(=O)C1C(=O)NCC1c1cccc(OC(F)F)c1 (stereo not drawn)", "criterion met"],
  ["COc1ccc(C2CNC(=O)C2C(=O)Nc2cccc(F)c2F)cc1C(F)(F)F (stereo not drawn)", "criterion met"],
  ["Cc1ccc(F)c(NC(=O)C2C(=O)NCC2c2cccc(C(F)(F)F)c2)c1 (racemic)", "criterion not met"],
  ["CON(C(=O)C1C(=O)NCC1c1ccc(F)c(F)c1)c1cc([N+](=O)[O-])ccc1F (stereo not drawn)", "criterion not met"],
  ["O=C1NCC(c2cccc(C(F)F)c2)C1C(=O)Nc1ccc(F)c(F)c1F (racemic)", "criterion met"],
  ["O=C1NCC(c2cccc(C(F)(F)F)c2)C1C(=O)Nc1ccc(F)cc1F (racemic)", "criterion met"],
  ["O=C1NCC(c2ccc(-c3ccccc3C(F)(F)F)cc2)C1C(=O)Nc1cccc(F)c1F (stereo not drawn)", "criterion not met"]
]}

Hi, just wondering whether O=C1NCC(c2cccc(C(F)(F)F)c2)C1C(=O)Nc1nc(C(F)(F)F)co1 (racemic) shows Galium plant response rating (0 to 100 scale, 0 is no effect, 100 is complete control) of 40 or higher.
criterion not met

Hi, just wondering whether O=C1NCC(c2cccc(OC(F)F)c2)C1C(=O)Nc1ccccc1Cl (stereo not drawn) shows Galium plant response rating (0 to 100 scale, 0 is no effect, 100 is complete control) of 40 or higher.
criterion met

Hi, just wondering whether O=C1NCC(c2cccc(OC(F)(F)C(F)F)c2)C1C(=O)Nc1ccc(F)cc1F (racemic) shows Galium plant response rating (0 to 100 scale, 0 is no effect, 100 is complete control) of 40 or higher.
criterion met
